Quick reference for ΔpKa among some compounds
Assay summary: apparent pKa of ionizable lipid in lipid nanoparticle, TNS assay
Assay type: physicochemical
Assay context: difference of calculated and measured pKa
Measured endpoint: ΔpKa

>>> meas_value("CCCCCCCCCC(=O)OCC(COC(=O)CCCCCCCCC)CC(=O)OCCN(CCOC(=O)CC(COC(=O)CCCCCCCCC)COC(=O)CCCCCCCCC)C(=O)NCCCN(C)C")
1.62
>>> meas_value("CCCCCCCCC(=O)OCC(COC(=O)CCCCCCCC)CC(=O)OCCN(CCOC(=O)CC(COC(=O)CCCCCCCC)COC(=O)CCCCCCCC)C(=O)N(C)CCN(C)C")
0.91
>>> meas_value("CCCCCCCCC(=O)OCC(COC(=O)CCCCCCCC)CC(=O)OCCN(CCOC(=O)CC(COC(=O)CCCCCCCC)COC(=O)CCCCCCCC)C(=O)NCCN(C)C")
0.80

* * *

This listing pairs compounds with measured Hydrodynamic diameter.
Assay summary: physical-chemical properties of LNP encapsulating mCherry mRNA
Format: physicochemical
Assay context: LNP: ionizable lipid/DSPC/cholesterol/DMG-PEG2000 50:10:38.5:1.5, mCherry mRNA, N/P 6; DLS, pH 7.4 Tris, 25° C.
Measured endpoint: Hydrodynamic diameter (nm)

>>> meas_value("CCCCCCCCC(=O)OCC(COC(=O)CCCCCCCC)CC(=O)OCCN(CCOC(=O)CC(COC(=O)CCCCCCCC)COC(=O)CCCCCCCC)C(=O)NCCN(C)C [Compound A-13]")
101
>>> meas_value("CCCCCCCCC(=O)OCC(COC(=O)CCCCCCCC)CC(=O)OCCN(CCOC(=O)CC(COC(=O)CCCCCCCC)COC(=O)CCCCCCCC)C(=O)OCCN(C)C [Compound A-11]")
82
>>> meas_value("CCCCCCCCC(=O)OCC(COC(=O)CCCCCCCC)CC(=O)OCCN(CCOC(=O)CC(COC(=O)CCCCCCCC)COC(=O)CCCCCCCC)C(=O)N(C)CCCN(C)C [Compound A-15]")
97

* * *

Each record here notes measured Encapapsulation Efficiency.
Assay summary: physical-chemical properties of LNP encapsulating mCherry mRNA
Format: physicochemical
Assay context: LNP 50:10:38.5:1.5, mCherry mRNA, N/P 6
Measured endpoint: Encapapsulation Efficiency

>>> meas_value("CCCCCCCCC(=O)OCC(COC(=O)CCCCCCCC)CC(=O)OCCN(CCOC(=O)CC(COC(=O)CCCCCCCC)COC(=O)CCCCCCCC)C(=O)N(C)CCN(C)C")
"91%"
>>> meas_value("CCCCCCCCCC(=O)OCC(COC(=O)CCCCCCCCC)CC(=O)OCCN(CCOC(=O)CC(COC(=O)CCCCCCCCC)COC(=O)CCCCCCCCC)C(=O)NCCCN(C)C")
"99%"
>>> meas_value("CCCCCCCCC(=O)OCC(COC(=O)CCCCCCCC)CC(=O)OCCN(CCOC(=O)CC(COC(=O)CCCCCCCC)COC(=O)CCCCCCCC)C(=O)NCCN(C)C")
"99%"
>>> meas_value("CCCCCCCCC(=O)OCC(COC(=O)CCCCCCCC)CC(=O)OCCN(CCOC(=O)CC(COC(=O)CCCCCCCC)COC(=O)CCCCCCCC)C(=O)OCCCN(C)C")
"91%"
>>> meas_value("CCCCCCCCC(=O)OCC(COC(=O)CCCCCCCC)CC(=O)OCCN(CCOC(=O)CC(COC(=O)CCCCCCCC)COC(=O)CCCCCCCC)C(=O)N(C)CCCN(C)C")
"99%"

* * *

This listing pairs compounds with measured ex vivo Mouse Plasm Stability % Remaining at 2 Hours.
Assay summary: ex vivo stability in mouse plasma
Assay type: in vitro ADME
Assay context: CD-1 mouse plasma, 37° C., 1 μM lipid
Measured endpoint: ex vivo Mouse Plasm Stability % Remaining at 2 Hours (%)

>>> meas_value("CCCCCCCCC(=O)OCC(COC(=O)CCCCCCCC)CC(=O)OCCN(CCOC(=O)CC(COC(=O)CCCCCCCC)COC(=O)CCCCCCCC)C(=O)OCCN(C)C [Compound A-11]")
86
>>> meas_value("CCCCCCCCC(=O)OCC(COC(=O)CCCCCCCC)CC(=O)OCCN(CCOC(=O)CC(COC(=O)CCCCCCCC)COC(=O)CCCCCCCC)C(=O)N(C)CCCN(C)C [Compound A-15]")
69
>>> meas_value("CCCCCCCCC(=O)OCC(COC(=O)CCCCCCCC)CC(=O)OCCN(CCOC(=O)CC(COC(=O)CCCCCCCC)COC(=O)CCCCCCCC)C(=O)OCCCN(C)C [Compound A-12]")
85
>>> meas_value("CCCCCCCCCC(=O)OCC(COC(=O)CCCCCCCCC)CC(=O)OCCN(CCOC(=O)CC(COC(=O)CCCCCCCCC)COC(=O)CCCCCCCCC)C(=O)NCCCN(C)C [Compound A-2]")
72
>>> meas_value("CCCCCCCCC(=O)OCC(COC(=O)CCCCCCCC)CC(=O)OCCN(CCOC(=O)CC(COC(=O)CCCCCCCC)COC(=O)CCCCCCCC)C(=O)NCCN(C)C [Compound A-13]")
64
>>> meas_value("CCCCCCCCC(=O)OCC(COC(=O)CCCCCCCC)CC(=O)OCCN(CCOC(=O)CC(COC(=O)CCCCCCCC)COC(=O)CCCCCCCC)C(=O)N(C)CCN(C)C [Compound A-14]")
61

* * *

Assay summary: physical-chemical properties of LNP encapsulating mCherry mRNA
Type: physicochemical
Assay context: LNP: ionizable lipid/DSPC/cholesterol/DMG-PEG2000 50:10:38.5:1.5, mCherry mRNA, N/P 6; DLS, pH 7.4 Tris, 25° C.
Let's look at some compounds and their measured Hydrodynamic diameter.
Measured endpoint: Hydrodynamic diameter (nm)

>>> meas_value("CCCCCCCCC(=O)OCC(COC(=O)CCCCCCCC)CC(=O)OCCN(CCOC(=O)CC(COC(=O)CCCCCCCC)COC(=O)CCCCCCCC)C(=O)N(C)CCN(C)C")
127
>>> meas_value("CCCCCCCCCC(=O)OCC(COC(=O)CCCCCCCCC)CC(=O)OCCN(CCOC(=O)CC(COC(=O)CCCCCCCCC)COC(=O)CCCCCCCCC)C(=O)NCCCN(C)C")
73
>>> meas_value("CCCCCCCCC(=O)OCC(COC(=O)CCCCCCCC)CC(=O)OCCN(CCOC(=O)CC(COC(=O)CCCCCCCC)COC(=O)CCCCCCCC)C(=O)OCCCN(C)C")
104

* * *

Reported ΔpKa values for the following compounds.
Assay summary: apparent pKa of ionizable lipid in lipid nanoparticle, TNS assay
Format: physicochemical
Assay context: difference of calculated and measured pKa
Measured endpoint: ΔpKa

>>> meas_value("CCCCCCCCC(=O)OCC(COC(=O)CCCCCCCC)CC(=O)OCCN(CCOC(=O)CC(COC(=O)CCCCCCCC)COC(=O)CCCCCCCC)C(=O)OCCCN(C)C [Compound A-12]")
1.91
>>> meas_value("CCCCCCCCC(=O)OCC(COC(=O)CCCCCCCC)CC(=O)OCCN(CCOC(=O)CC(COC(=O)CCCCCCCC)COC(=O)CCCCCCCC)C(=O)OCCN(C)C [Compound A-11]")
1.81
>>> meas_value("CCCCCCCCC(=O)OCC(COC(=O)CCCCCCCC)CC(=O)OCCN(CCOC(=O)CC(COC(=O)CCCCCCCC)COC(=O)CCCCCCCC)C(=O)N(C)CCCN(C)C [Compound A-15]")
1.18

* * *

Assay summary: apparent pKa of ionizable lipid in lipid nanoparticle, TNS assay
Assay type: physicochemical
Assay context: ionizable lipid in tLNP; TNS assay; read-out: Measured pKa
Kind request: treat 8 as inclusive, so pKa at 8 or higher is 1.0, anything lower is 0.0.

>>> group_label("CCCCCCCCC(=O)OCC(COC(=O)CCCCCCCC)CC(=O)OCCN(CCOC(=O)CC(COC(=O)CCCCCCCC)COC(=O)CCCCCCCC)C(=O)N(C)CCCN(C)C [Compound A-15]")
1.0
>>> group_label("CCCCCCCCC(=O)OCC(COC(=O)CCCCCCCC)CC(=O)OCCN(CCOC(=O)CC(COC(=O)CCCCCCCC)COC(=O)CCCCCCCC)C(=O)NCCN(C)C [Compound A-13]")
0.0
>>> group_label("CCCCCCCCC(=O)OCC(COC(=O)CCCCCCCC)CC(=O)OCCN(CCOC(=O)CC(COC(=O)CCCCCCCC)COC(=O)CCCCCCCC)C(=O)N(C)CCN(C)C [Compound A-14]")
0.0
>>> group_label("CCCCCCCCC(=O)OCC(COC(=O)CCCCCCCC)CC(=O)OCCN(CCOC(=O)CC(COC(=O)CCCCCCCC)COC(=O)CCCCCCCC)C(=O)OCCCN(C)C [Compound A-12]")
0.0
>>> group_label("CCCCCCCCC(=O)OCC(COC(=O)CCCCCCCC)CC(=O)OCCN(CCOC(=O)CC(COC(=O)CCCCCCCC)COC(=O)CCCCCCCC)C(=O)OCCN(C)C [Compound A-11]")
0.0
